Entries and their measured Z Score follow.
# assayed.system: T1, P-cadherin-ECD1-3-Fc protein (human P-cadherin-Fc) (human, UniProt P22223 108-440)
# T1 construct: Construct was expressed with signal peptide and pro-peptide (PACE co-transfected to process the propeptide); not shown: hinge and CH2 and CH3 domains of human IgG1
# T1 sequence (P22223 108-440): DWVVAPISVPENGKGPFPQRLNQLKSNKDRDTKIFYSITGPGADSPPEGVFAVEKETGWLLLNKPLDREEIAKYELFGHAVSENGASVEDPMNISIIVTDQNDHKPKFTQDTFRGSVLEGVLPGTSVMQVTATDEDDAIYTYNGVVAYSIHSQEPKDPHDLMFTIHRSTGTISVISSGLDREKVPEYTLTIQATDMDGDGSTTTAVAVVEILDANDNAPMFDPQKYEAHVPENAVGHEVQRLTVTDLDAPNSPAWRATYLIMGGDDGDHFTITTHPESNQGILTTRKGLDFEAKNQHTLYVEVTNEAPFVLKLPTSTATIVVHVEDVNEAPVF
# experiment.description: phage scFv ELISA, coated P-cadherin-ECD1-3-Fc
# Description: P-cadherin-ECD1-3-Fc protein or negative control protein was coated overnight at 4° C. on 96-well Nunc Maxisorp® plates (Thermo Fisher Scientific, Madison, Conn.) at a concentration of 2 μg/mL in PBS+Ca²⁺ and Mg²⁺. […] Signal was developed using TMB (SurModics, Eden Prairie, Minn.), the reaction stopped with H₂SO₄ and the absorbance read at 450 nm on an EnVision® plate reader (Perkin Elmer, Waltham, Mass.).

Completed entries (count: 2):
>>> test_result("anti-P-cadherin scFv 153 alanine-mutant H2.1-Ala (scFv, V domains shown, scFv on phage) VH: EVQLVQSGAEVKKPGASVKVSCKASGYTFTSYGISWVRQAPGQGLEWMGAISAYNGNTNYAQKLQGRVTMTTDTSTSTAYMELRSLRSDDTAVYYCATIDTANAFGIWGQGTMVTVSS VL: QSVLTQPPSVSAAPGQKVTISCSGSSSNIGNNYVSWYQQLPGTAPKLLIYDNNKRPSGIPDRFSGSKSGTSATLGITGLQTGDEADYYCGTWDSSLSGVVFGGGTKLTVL")
0.1
>>> test_result("anti-P-cadherin scFv 153 alanine-mutant H1.2-Ala (scFv, V domains shown, scFv on phage) VH: EVQLVQSGAEVKKPGASVKVSCKASGATFTSYGISWVRQAPGQGLEWMGWISAYNGNTNYAQKLQGRVTMTTDTSTSTAYMELRSLRSDDTAVYYCATIDTANAFGIWGQGTMVTVSS VL: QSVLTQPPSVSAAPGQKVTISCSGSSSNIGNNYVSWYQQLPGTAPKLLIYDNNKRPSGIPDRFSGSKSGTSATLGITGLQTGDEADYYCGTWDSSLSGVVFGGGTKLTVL")
1.7

# return recorded Z Score for input anti-P-cadherin scFv 153 alanine-mutant H1.4-Ala (scFv, V domains shown, scFv on phage) VH: EVQLVQSGAEVKKPGASVKVSCKASGYTATSYGISWVRQAPGQGLEWMGWISAYNGNTNYAQKLQGRVTMTTDTSTSTAYMELRSLRSDDTAVYYCATIDTANAFGIWGQGTMVTVSS VL: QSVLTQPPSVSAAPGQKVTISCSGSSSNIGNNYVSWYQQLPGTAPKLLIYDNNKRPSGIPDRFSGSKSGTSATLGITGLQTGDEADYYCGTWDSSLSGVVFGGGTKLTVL 1.6

Entry anti-P-cadherin scFv 153 alanine-mutant H2.2-Ala (scFv, V domains shown, scFv on phage) VH: EVQLVQSGAEVKKPGASVKVSCKASGYTFTSYGISWVRQAPGQGLEWMGWASAYNGNTNYAQKLQGRVTMTTDTSTSTAYMELRSLRSDDTAVYYCATIDTANAFGIWGQGTMVTVSS VL: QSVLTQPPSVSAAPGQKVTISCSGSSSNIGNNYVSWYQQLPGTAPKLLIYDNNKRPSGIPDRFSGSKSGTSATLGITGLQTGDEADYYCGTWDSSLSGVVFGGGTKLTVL needs its Z Score filled in; supply it. 1.4

Recall and state the measured Z Score for anti-P-cadherin scFv 153 alanine-mutant H2.13-Ala (scFv, V domains shown, scFv on phage) VH: EVQLVQSGAEVKKPGASVKVSCKASGYTFTSYGISWVRQAPGQGLEWMGWISAYNGNTNYAAKLQGRVTMTTDTSTSTAYMELRSLRSDDTAVYYCATIDTANAFGIWGQGTMVTVSS VL: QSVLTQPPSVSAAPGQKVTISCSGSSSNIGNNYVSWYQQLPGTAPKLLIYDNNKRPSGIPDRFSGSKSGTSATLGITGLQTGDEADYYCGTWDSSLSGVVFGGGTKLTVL . 1.1

Return Z Score (reported value) for this binder: anti-P-cadherin scFv 153 alanine-mutant H2.11-Ala (scFv, V domains shown, scFv on phage) VH: EVQLVQSGAEVKKPGASVKVSCKASGYTFTSYGISWVRQAPGQGLEWMGWISAYNGNTNAAQKLQGRVTMTTDTSTSTAYMELRSLRSDDTAVYYCATIDTANAFGIWGQGTMVTVSS VL: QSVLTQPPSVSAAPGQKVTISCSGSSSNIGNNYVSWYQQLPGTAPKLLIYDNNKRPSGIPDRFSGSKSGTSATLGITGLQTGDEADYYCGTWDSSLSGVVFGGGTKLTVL 1.3

Note down Z Score recorded for anti-P-cadherin scFv 153 alanine-mutant H2.3-Ala (scFv, V domains shown, scFv on phage) VH: EVQLVQSGAEVKKPGASVKVSCKASGYTFTSYGISWVRQAPGQGLEWMGWIAAYNGNTNYAQKLQGRVTMTTDTSTSTAYMELRSLRSDDTAVYYCATIDTANAFGIWGQGTMVTVSS VL: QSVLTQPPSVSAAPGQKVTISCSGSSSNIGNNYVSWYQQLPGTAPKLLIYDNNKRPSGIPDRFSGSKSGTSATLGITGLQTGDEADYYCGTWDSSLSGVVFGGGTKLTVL 0.8

The measurements presented in this section are drawn from patent US20160002357A1.
